This listing pairs compounds with measured GI50.
# Test system: T24 bladder cancer cells
# Test Details: Cell viability assay (MTT), dark and blue light
# Type: cell-based, Human
# Assay Setup: in the dark, 72 h; read-out: GI50 T24 Dark
Write the number in µM without appending the unit.

Recorded GI50, per entry:
>>> assay_result("F[P-](F)(F)(F)(F)F.O=C(CCCC[C@@H]1SC[C@@H]2NC(=O)N[C@@H]21)NCCCn1cc[n+]2[c]1[Ir-3]13([c]4ccccc4-c4c5ccccc5cc[n+]41)([c]1ccccc1-c1c4ccccc4cc[n+]13)[n+]1ccccc1-2")
13.9
>>> assay_result("COC(=O)c1ccc2[n+](c1)[Ir-3]13([c]4ccccc4-2)([c]2ccccc2-c2ccc(C(=O)OC)c[n+]21)[c]1n(CCCNC(=O)c2ccccc2SC/C=C(\\C)CC/C=C(\\C)CCC=C(C)C)cc[n+]1-c1cccc[n+]13.F[P-](F)(F)(F)(F)F")
2.2
>>> assay_result("F[P-](F)(F)(F)(F)F.O=C(CCCC[C@@H]1SC[C@@H]2NC(=O)N[C@@H]21)NCCCn1cc[n+]2[c]1[Ir-3]13([c]4ccccc4-c4sc5ccccc5[n+]41)([c]1ccccc1-c1sc4ccccc4[n+]13)[n+]1ccccc1-2")
18.7
>>> assay_result("Cc1ccc2[c](c1)[Ir-3]13([c]4cc(C)ccc4-c4cccc[n+]41)([c]1n(CCCNC(=O)CCCC[C@@H]4SC[C@@H]5NC(=O)N[C@@H]54)cc[n+]1-c1cccc[n+]13)[n+]1ccccc1-2.F[P-](F)(F)(F)(F)F")
13.7
>>> assay_result("COC(=O)c1ccc2[n+](c1)[Ir-3]13([c]4ccccc4-2)([c]2ccccc2-c2ccc(C(=O)OC)c[n+]21)[c]1n(CCCNC(=O)CCCC[C@@H]2SC[C@@H]4NC(=O)N[C@@H]42)cc[n+]1-c1cccc[n+]13.F[P-](F)(F)(F)(F)F")
96

// next item, GI50 requested
Req: Provide measured GI50 value, entry: `CC(C)=CCC/C(C)=C/CC/C(C)=C/CSc1ccccc1C(=O)NCCCn1cc[n+]2[c]1[Ir-3]13([c]4ccccc4-c4ccc5ccccc5[n+]41)([c]1ccccc1-c1ccc4ccccc4[n+]13)[n+]1ccccc1-2.F[P-](F)(F)(F)(F)F`
Resp: 0.47
